Origin of values: patent US20090317491A1

Assay: Half-life time of HOCl in water / outside the body (FIG. 16)
Type: physicochemical
Details: water (medical sterilized normal saline), neutral or subacid, outside of human body
Protocol: Especially, HOCl generated in the medical sterilized normal saline is very unstable in neutral or subacid area, and thus is tend to be reduced to a half only for 3 minutes. Therefore, the free chlorines should be supplied to patients within 3 minutes from manufacturing the medical normal saline. […] Therefore, prompt supply into the body right after manufacturing the medical normal saline can obtain enough time to sterilize or kill germs, fungi, bacteria, the causes of diseases. […]
Quantity kind: half-life (min)

Compound	Recorded number
OCl [HOCl, Hypochlorous acid]	3
